Reported pKi values for a set of molecules
# System: purified human Factor XIa (Homo sapiens, UniProt P03951)
# Construct: purchased Haematologic Technologies
# Sequence (P03951 19-387): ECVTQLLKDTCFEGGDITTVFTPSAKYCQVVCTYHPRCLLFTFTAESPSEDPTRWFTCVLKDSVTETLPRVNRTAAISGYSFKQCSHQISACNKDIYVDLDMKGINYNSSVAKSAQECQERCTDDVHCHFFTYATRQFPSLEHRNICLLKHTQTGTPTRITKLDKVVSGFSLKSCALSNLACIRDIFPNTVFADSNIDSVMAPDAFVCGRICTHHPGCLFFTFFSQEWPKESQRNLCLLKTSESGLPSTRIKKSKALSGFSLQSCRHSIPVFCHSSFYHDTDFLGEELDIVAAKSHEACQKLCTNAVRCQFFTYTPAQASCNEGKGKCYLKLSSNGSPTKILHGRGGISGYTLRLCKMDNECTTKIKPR
# Sequence (P03951 388-625): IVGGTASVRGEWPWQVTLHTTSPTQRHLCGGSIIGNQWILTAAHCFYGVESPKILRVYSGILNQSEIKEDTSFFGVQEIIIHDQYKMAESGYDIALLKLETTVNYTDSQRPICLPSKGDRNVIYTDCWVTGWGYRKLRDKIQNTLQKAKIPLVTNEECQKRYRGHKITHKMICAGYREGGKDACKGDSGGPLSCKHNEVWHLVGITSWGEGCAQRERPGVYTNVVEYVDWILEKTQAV
# Assay info: Factor XIa assay (chromogenic substrate S-2366 hydrolysis, Ki)
# Format: biochemical
# Run conditions: purified human Factor XIa 75-200 pM, substrate S-2366, 50 mM HEPES pH 7.4; read-out: Factor XIa Ki
pKi: −log10 of the molar value. Structures can show the parent of a compound that is named as a salt.
Measured endpoint: pKi

1. COC(=O)c1ccc(NC(=O)[C@H](Cc2ccccc2)NC(=O)/C=C/c2cc(Cl)ccc2-n2cnnn2)nc1 [Example 103, TFA salt]
6.95
2. O=C(/C=C/c1cc(Cl)ccc1-n1cnnn1)N[C@@H](Cc1ccccc1)C(=O)Nc1ccc2[nH]ncc2c1
7.90
3. O=C(/C=C/c1cc(Cl)ccc1-n1cnnn1)N[C@@H](Cc1c[nH]c2ccccc12)C(=O)Nc1ccc(C(=O)O)cc1 [Example 238, TFA salt]
8.33
4. COC(=O)Nc1ccc(NC(=O)[C@H](Cc2ccccc2)NC(=O)/C=C/c2cc(Cl)ccc2-n2cnnn2)c(Cl)c1
5.53
5. O=C(/C=C/c1cc(Cl)ccc1-n1cnnn1)N[C@@H](Cc1ccccc1)C(=O)Nc1nc2ccc(F)cc2s1
6.27

* * *

# System: purified human Factor XIa (Homo sapiens, UniProt P03951)
# Construct: purchased Haematologic Technologies
# Assay info: Factor XIa assay (chromogenic substrate S-2366 hydrolysis, Ki)
# Assay type: biochemical
# Procedure: The effectiveness of compounds of the present invention as inhibitors of the coagulation factors XIa, VIIa, IXa, Xa, XIIa, plasma kallikrein or thrombin, can be determined using a relevant purified serine protease, respectively, and an appropriate synthetic substrate. The rate of hydrolysis of the chromogenic or fluorogenic substrate by the relevant serine protease was measured both in the absence and presence of compounds of the present invention. […]
Where a name gives a salt, the structure may show the parent alone.
Measured endpoint: Ki

1. COC(=O)c1ccc(NC(=O)[C@H](Cc2cc(C)n(C)n2)NC(=O)/C=C/c2c(-n3cnnn3)ccc(Cl)c2F)nc1 [Example 216, TFA salt]
65.9 nM
2. COC[C@H](NC(=O)/C=C/c1cc(Cl)ccc1-n1cnnn1)C(=O)Nc1ccc(C(=O)O)cc1
3630 nM
3. O=C(/C=C/c1cc(Cl)ccc1-n1cnnn1)N[C@@H](CC(=O)NCCN1CCOCC1)C(=O)Nc1ccc(C(=O)O)cc1 [Example 286, Trifluoroacetic acid salt]
481 nM
4. C[C@H](NC(=O)/C=C/c1cc(Cl)ccc1-n1cnnn1)C(=O)Nc1ccc(CC(=O)O)cc1
317 nM
5. CC(C)(C)SC[C@H](NC(=O)/C=C/c1cc(Cl)ccc1-n1cnnn1)C(=O)Nc1ccc(C(=O)O)cc1
32.5 nM
6. O=C(/C=C/c1cc(Cl)ccc1-n1cnnn1)N[C@@H](Cc1ccccc1)C(=O)Nc1cccn2c(C(F)(F)F)nnc12
3850 nM
7. O=C(/C=C/c1cc(Cl)ccc1-n1cnnn1)N[C@@H](CC1CCN(C(=O)c2ccccc2)C1)C(=O)Nc1ccc(C(=O)O)cc1 (stereo partly shown)
12.4 nM

* * *

# System: purified human Factor XIa (Homo sapiens)
# Construct: purchased Haematologic Technologies
# Assay info: Factor XIa assay (chromogenic substrate S-2366 hydrolysis, Ki)
# Type: biochemical
# Run conditions: purified human Factor XIa 75-200 pM, substrate S-2366, 50 mM HEPES pH 7.4; read-out: Factor XIa Ki
Where a name gives a salt, the structure may show the parent alone.
Measured endpoint: Ki (nM)

1) O=C(/C=C/c1cc(Cl)ccc1-n1cnnn1)N[C@@H](Cc1ccccc1)C(=O)Nc1n[nH]c2ncccc12 [Example 137, TFA salt]
53.9
2) CN1CCN(C(=O)C[C@H](NC(=O)/C=C/c2cc(Cl)ccc2-n2cnnn2)C(=O)Nc2ccc(C(=O)O)cc2)CC1
33.4
3) O=C(/C=C/c1cc(Cl)ccc1-n1cnnn1)N[C@@H](Cc1ccccc1)C(=O)Nc1ccc2c(=O)[nH][nH]c(=O)c2c1
33.9
4) O=C(/C=C/c1cc(Cl)ccc1-n1cnnn1)N[C@@H](Cc1ccccc1)C(=O)Nc1ccc2c(c1)C(=O)NC2
67.9
5) O=C(/C=C/c1cc(Cl)ccc1-n1cnnn1)N[C@@H](Cc1cccnc1)C(=O)Nc1ccc(C(=O)O)cc1
6.09
6) O=C(/C=C/c1cc(Cl)ccc1-n1cnnn1)N[C@@H](Cc1ccccc1)C(=O)Nc1ncc(C(=O)O)s1
105
7) O=C(/C=C/c1cc(Cl)ccc1-n1cnnn1)N[C@@H](Cc1cccc(F)c1)C(=O)Nc1ccc(-c2nnn[nH]2)cc1
1.61

* * *

# System: purified human Factor XIa (Homo sapiens)
# Construct: purchased Haematologic Technologies
# Assay info: Factor XIa assay (chromogenic substrate S-2366 hydrolysis, Ki)
# Type: biochemical
# Run conditions: purified human Factor XIa 75-200 pM, substrate S-2366, 50 mM HEPES pH 7.4; read-out: Factor XIa Ki
Counter-ions that a name gives are not always drawn.
Ki vs 700 nM: less than gives satisfied; not less than gives not satisfied.

1. Nc1n[nH]c2cc(NC(=O)[C@H](Cc3ccccc3)NC(=O)C[S+]([O-])c3cc(Cl)ccc3-n3cnnn3)ccc12 (single isomer, unassigned; isomer b)
satisfied
2. O=C(/C=C/c1cc(Cl)ccc1-n1cnnn1)N[C@@H](Cc1ccccc1)C(=O)Nc1ccc2c(c1)CCNC2
satisfied
3. O=C(/C=C/c1cc(Cl)ccc1-n1cnnn1)N[C@@H](Cc1ccccc1)C(=O)Nc1ccc(N2CCSCC2)cc1 [Example 99, TFA salt]
not satisfied
4. CC[C@H](NC(=O)/C=C/c1cc(Cl)ccc1-n1cnnn1)C(=O)Nc1ccc(NC(=O)OC)cc1
not satisfied
5. COP(=O)(CCOC(=O)Nc1ccc(NC(=O)[C@H](Cc2ccccc2)NC(=O)/C=C/c2cc(Cl)ccc2-n2cnnn2)cc1)OC
satisfied
6. O=C(/C=C/c1cc(Cl)ccc1-n1cnnn1)N[C@@H](Cc1cccs1)C(=O)Nc1ccc(C(=O)O)cc1
satisfied

* * *

# System: purified human Factor XIa (Homo sapiens, UniProt P03951)
# Construct: purchased Haematologic Technologies
# Assay info: Factor XIa assay (chromogenic substrate S-2366 hydrolysis, Ki)
# Type: biochemical
pKi: −log10 of the molar value. Where a name gives a salt, the structure may show the parent alone.
Label yes when pKi >= 7; otherwise no.

1) O=C(/C=C/c1cc(Cl)ccc1-n1cnnn1)N[C@@H](CC(=O)NCc1cnccn1)C(=O)Nc1ccc(C(=O)O)cc1
yes
2) O=C(/C=C/c1cc(Cl)ccc1-n1cnnn1)NC(Cc1cnc2ccccc2n1)C(=O)Nc1ccc(C(=O)O)cc1 (centres unmarked)
yes
3) Nc1nc2ccc(C(=O)N[C@@H](Cc3ccccc3)C(=O)NCCc3cc(Cl)ccc3-n3cnnn3)cc2s1 [Example 204, TFA salt]
yes
4) O=C1CSc2cc(C(=O)N[C@@H](Cc3ccccc3)C(=O)NCCc3cc(Cl)ccc3-n3cnnn3)ccc2N1
yes
5) O=C(N[C@@H](Cc1ccccc1)C(=O)NCCc1cc(Cl)ccc1-n1cnnn1)c1cn2cccnc2n1
no
6) N/C(=N/[N+](=O)[O-])NCCC[C@H](NC(=O)/C=C/c1cc(Cl)ccc1-n1cnnn1)C(=O)Nc1ccc(C(=O)O)cc1
yes
7) O=C(/C=C/c1c(F)ccc(Cl)c1F)N[C@@H](Cc1ccccc1)C(=O)Nc1ccc2cn[nH]c2c1
no
8) O=C(/C=C/c1cc(Cl)ccc1-n1cnnn1)N[C@@H](Cc1ccccc1)C(=O)N[C@@H]1CCCCNC1=O
no
9) O=C(N[C@@H](Cc1ccccc1)C(=O)NCCc1cc(Cl)ccc1-n1cnnn1)c1n[nH]c2ccccc12
no
10) COC(=O)c1ccc2nc(NC(=O)[C@H](Cc3ccccc3)NC(=O)/C=C/c3cc(Cl)ccc3-n3cnnn3)nn2c1
yes
11) O=C(/C=C/c1cc(Cl)ccc1-n1cnnn1)N[C@H](C(=O)Nc1ccc(C(=O)O)cc1)[C@@H]1CCCNC1
no
12) O=C(/C=C/c1c(F)ccc(Cl)c1F)N[C@@H](Cc1ccccc1)C(=O)Nc1ccc(C(=O)O)cc1
no
13) CS(=O)(=O)CC[C@H](NC(=O)/C=C/c1cc(Cl)ccc1-n1cnnn1)C(=O)Nc1ccc(C(=O)O)cc1
yes
14) COC(=O)Nc1ccc2c(c1)CCN(C(=O)[C@H](Cc1ccccc1)NC(=O)/C=C/c1cc(Cl)ccc1-n1cnnn1)C2
no
15) O=C1CNC(=O)c2ccc(C(=O)N[C@@H](Cc3ccccc3)C(=O)NCCc3cc(Cl)ccc3-n3cnnn3)cc2N1
no
